- target: α4β7 integrin interaction with MadCAM-1 (RPMI8866 cells) (Homo sapiens, UniProt P13612+P26010)
- Construct: α4β7 integrin expressing cells; endogenous in cells
- assay-text: α4β7 Integrin Cell Capture Assay
- measurement-conditions: capture of α4β7 integrin expressing RPMI8866 cells on recombinant MadCAM-1 extracellular domain-coated plate; 0.5 mM MnCl2
property-label: EC50 (nM)

Query: Given the molecule O=C(N[C@@H](Cc1ccc(-c2c(Cl)cc(F)cc2Cl)c2c1COC2)C(=O)O)c1c(Cl)cccc1Cl [Example 17] , write its reported EC50.
Reply: 127

Query: Given the molecule O=C(N[C@@H](Cc1ccc(-c2c(Cl)cc(F)cc2Cl)c2c1CCCO2)C(=O)O)c1c(Cl)cccc1Cl [Example 75] , write its reported EC50.
Reply: 67.7

1: Cc1nc(-c2ccc(C[C@H](NC(=O)c3c(F)cc(N4CCOC[C@@H]4C(F)(F)F)cc3F)C(=O)O)c3c2OCCO3)c(=O)n(C)c1C [Example 175]
2: O=C(N[C@@H](Cc1ccc(-c2cc(F)c(F)c3c2OCCC3)c2c1CCCO2)C(=O)O)c1c(Cl)cccc1Cl [Example 90]
Query: Input pair: 1 , 2 . Output: entry with lower EC50. Answer format: the label of the selected item.
Reply: 1
(1: 0.205 nM, 2: 16 nM)

###

- target: α4β7 integrin interaction with MadCAM-1 (RPMI8866 cells) (Homo sapiens, UniProt P13612+P26010)
- Construct: α4β7 integrin expressing cells; endogenous in cells
- Sequence (P13612 34-1032): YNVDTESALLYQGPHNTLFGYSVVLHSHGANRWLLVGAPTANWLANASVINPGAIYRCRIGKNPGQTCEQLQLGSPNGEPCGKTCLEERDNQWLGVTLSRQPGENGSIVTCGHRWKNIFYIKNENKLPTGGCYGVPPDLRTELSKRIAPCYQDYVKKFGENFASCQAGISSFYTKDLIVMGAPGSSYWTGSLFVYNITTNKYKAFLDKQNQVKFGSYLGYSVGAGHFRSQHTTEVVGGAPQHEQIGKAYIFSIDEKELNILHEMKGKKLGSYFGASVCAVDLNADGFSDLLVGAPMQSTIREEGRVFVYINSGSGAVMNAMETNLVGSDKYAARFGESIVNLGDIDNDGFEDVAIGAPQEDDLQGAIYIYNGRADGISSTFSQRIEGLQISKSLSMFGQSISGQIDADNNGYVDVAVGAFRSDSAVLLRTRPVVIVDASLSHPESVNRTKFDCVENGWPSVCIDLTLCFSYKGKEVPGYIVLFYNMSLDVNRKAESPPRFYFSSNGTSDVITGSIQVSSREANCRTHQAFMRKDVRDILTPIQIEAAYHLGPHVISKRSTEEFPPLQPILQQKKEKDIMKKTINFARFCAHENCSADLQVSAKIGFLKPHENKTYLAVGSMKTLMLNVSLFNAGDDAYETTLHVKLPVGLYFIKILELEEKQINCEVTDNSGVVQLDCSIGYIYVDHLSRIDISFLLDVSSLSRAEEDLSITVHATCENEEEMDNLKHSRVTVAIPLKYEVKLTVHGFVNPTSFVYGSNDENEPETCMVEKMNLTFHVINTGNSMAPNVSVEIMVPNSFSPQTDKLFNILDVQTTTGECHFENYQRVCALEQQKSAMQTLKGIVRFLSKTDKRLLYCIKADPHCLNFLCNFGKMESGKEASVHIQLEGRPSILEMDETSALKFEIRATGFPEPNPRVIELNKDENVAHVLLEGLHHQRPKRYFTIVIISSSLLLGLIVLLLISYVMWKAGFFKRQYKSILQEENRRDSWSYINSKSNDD
- Sequence (P26010 20-798): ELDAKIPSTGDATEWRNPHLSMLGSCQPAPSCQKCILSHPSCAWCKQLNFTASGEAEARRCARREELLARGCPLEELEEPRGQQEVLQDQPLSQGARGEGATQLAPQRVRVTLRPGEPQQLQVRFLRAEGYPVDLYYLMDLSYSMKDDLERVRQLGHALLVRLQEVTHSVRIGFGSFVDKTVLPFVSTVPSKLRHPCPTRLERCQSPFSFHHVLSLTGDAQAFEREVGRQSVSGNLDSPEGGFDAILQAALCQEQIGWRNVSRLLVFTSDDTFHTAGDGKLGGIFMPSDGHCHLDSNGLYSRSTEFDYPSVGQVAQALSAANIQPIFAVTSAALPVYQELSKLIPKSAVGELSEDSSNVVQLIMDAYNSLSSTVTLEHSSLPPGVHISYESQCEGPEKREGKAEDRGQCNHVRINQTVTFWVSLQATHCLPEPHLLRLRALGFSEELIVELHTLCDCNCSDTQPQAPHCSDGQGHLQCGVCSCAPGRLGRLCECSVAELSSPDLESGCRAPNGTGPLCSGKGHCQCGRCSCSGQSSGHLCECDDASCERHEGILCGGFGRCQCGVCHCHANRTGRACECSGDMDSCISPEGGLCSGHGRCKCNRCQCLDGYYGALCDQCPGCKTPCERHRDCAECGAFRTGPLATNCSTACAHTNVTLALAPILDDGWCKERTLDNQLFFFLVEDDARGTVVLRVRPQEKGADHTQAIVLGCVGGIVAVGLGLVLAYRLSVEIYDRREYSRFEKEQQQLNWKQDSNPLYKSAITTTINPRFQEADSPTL
- assay-text: α4β7 Integrin Cell Capture Assay
- measurement-conditions: capture of α4β7 integrin expressing RPMI8866 cells on recombinant MadCAM-1 extracellular domain-coated plate; 0.5 mM MnCl2
property-label: EC50 (pM)

Record excerpt, results attached:
Query: Given the molecule Cc1cc(C)n(C)c(=O)c1-c1ccc(C[C@H](NC(=O)c2c(F)cc(N3CCOC[C@@H]3C(F)(F)F)cc2F)C(=O)O)c2c1CCC2 [Example 195] , write its reported EC50.
Reply: 198

Query: Given the molecule Cc1nc(-c2ccc(C[C@H](NC(=O)c3c(F)cc(N4CCOC[C@@H]4C(F)(F)F)cc3Cl)C(=O)O)c3c2OCCC3)c(=O)n(C)c1C [Example 150] , write its reported EC50.
Reply: 140

Query: Given the molecule C[C@@H](Nc1cc(F)c(C(=O)N[C@@H](Cc2ccc(-c3cn(C)c(=O)n(C)c3=O)c3c2CCCO3)C(=O)O)c(F)c1)C(F)(F)F [Example 88] , write its reported EC50.
Reply: 2420

Query: Given the molecule CC[C@@H](Nc1cc(F)c(C(=O)N[C@@H](Cc2ccc(-c3c(C)n(C)c(=O)n(C)c3=O)c3c2COC3)C(=O)O)c(F)c1)C(F)(F)F [Example 15] , write its reported EC50.
Reply: 939

Query: Given the molecule Cc1cc(N2CCC2)c(-c2ccc(C[C@H](NC(=O)c3c(F)cc(N4CCOC[C@@H]4C(F)(F)F)cc3F)C(=O)O)c3c2OCCC3)c(=O)n1C [Example 167] , write its reported EC50.
Reply: 521

1: C=C1COCCN(c2cc(F)c(C(=O)N[C@@H](Cc3ccc(-c4nc(C)c(C)n(C)c4=O)c4c3CCCO4)C(=O)O)c(F)c2)C1 [Example 158]
2: Cc1nc(C)n(C)c(=O)c1-c1ccc(C[C@H](NC(=O)c2c(F)cc(N3CCOC[C@@H]3C(F)(F)F)cc2F)C(=O)O)c2c1OCCC2 [Example 130]
Query: Input pair: 1 , 2 . Output: entry with lower EC50. Answer format: the label of the selected item.
Reply: 2
(2: 341 pM, 1: 502 pM)

I: Cc1c(Cl)cc(-c2ccc(C[C@H](NC(=O)c3c(F)cc(N4CCOC[C@@H]4C(F)(F)F)cc3F)C(=O)O)c3c2OCCC3)c(=O)n1C [Example 141]
II: Cc1cc(C(F)(F)F)c(-c2ccc(C[C@H](NC(=O)c3c(F)cc(N4CCOC[C@@H]4C(F)(F)F)cc3F)C(=O)O)c3c2CCN(C)C3)c(=O)n1C [Example 203]
Query: From the recorded data, which exceeds the other in EC50: I or II ? Answer format: the label of the selected item.
Reply: I

1: Cc1nc(-c2ccc(C[C@H](NC(=O)c3c(F)cc(N4CCOC[C@@H]4C(F)(F)F)cc3F)C(=O)O)c3c2C[C@H](O)C3)c(=O)n(C)c1C [Example 191]
2: Cc1cc(N2CCOC[C@@H]2C(F)(F)F)cc(F)c1C(=O)N[C@@H](Cc1ccc(-n2c(=O)c3ccncc3n(C)c2=O)c2c1CCCO2)C(=O)O [Example 115]
3: Cc1cc(C(F)(F)F)c(-c2ccc(C[C@H](NC(=O)c3c(F)cc(N4CCOC[C@@H]4C(F)(F)F)cc3F)C(=O)O)c3c2OCCC3)c(=O)n1C (single isomer, unassigned) [Example 40]
4: Cc1cc(N2CCOC[C@@H]2C(F)(F)F)cc(F)c1C(=O)N[C@@H](Cc1ccc(-c2cc(Cl)c(C)n(C)c2=O)c2c1CCCO2)C(=O)O [Example 142]
Query: // ranking: key=EC50, reverse=True I'd appreciate it if you listed the labels in the requested order.
Reply: 3, 1, 4, 2

P: Cc1nc(-c2ccc(C[C@H](NC(=O)c3c(F)cc(N4CCOC[C@@H]4C(F)(F)F)cc3F)C(=O)O)c3c2CC(O)C3)c(=O)n(C)c1C (some centres unmarked) [Example 197]
Q: CC[C@@H](Nc1cc(F)c(C(=O)N[C@@H](Cc2ccc(-c3c(C(F)(F)F)cc(C)n(C)c3=O)c3c2CCCO3)C(=O)O)c(F)c1)C(F)(F)F (single isomer, unassigned) [Example 45]
Query: From the recorded data, which exceeds the other in EC50: P or Q ? Answer format: the label of the selected item.
Reply: Q

P: CCc1nc(-c2ccc(C[C@H](NC(=O)c3c(C)cc(N4CCOC[C@@H]4C(F)(F)F)cc3F)C(=O)O)c3c2OCCC3)c(=O)n(C)c1CC [Example 169]
Q: O=C(N[C@@H](Cc1ccc(-c2c(Cl)cc(F)cc2Cl)c2c1CCCO2)C(=O)O)c1c(F)cccc1F [Example 74]
R: Cc1cc(N2CCOC[C@@H]2C(F)(F)F)cc(F)c1C(=O)N[C@@H](Cc1ccc(-c2c(C(F)(F)F)cc(C)n(C)c2=O)c2c1CCC2)C(=O)O [Example 200]
Query: // ranking: key=EC50, reverse=True I'd appreciate it if you listed the labels in the requested order.
Reply: Q, P, R
(Q: 79700 pM, P: 356 pM, R: 83 pM)

I: O=C1CCc2c(C[C@H](NC(=O)c3c(F)cccc3F)C(=O)O)ccc(-c3c(Cl)cc(F)cc3Cl)c2N1 [Example 103]
II: Cc1c(-c2ccc(C[C@H](NC(=O)c3c(F)cc(N4CCOC[C@@H]4C(F)(F)F)cc3F)C(=O)O)c3c2COC3)c(=O)n(C)c(=O)n1C [Example 14]
III: CC[C@@H](Nc1cc(F)c(C(=O)N[C@@H](Cc2ccc(-c3c(C(F)(F)F)cc(C)n(C)c3=O)c3c2CCCO3)C(=O)O)c(F)c1)C(F)(F)F [Example 43]
IV: Cc1cc(C)n(C)c(=O)c1-c1ccc(C[C@H](NC(=O)c2c(F)cc(N[C@H](C)C(F)(F)F)cc2F)C(=O)O)c2c1OCCC2 [Example 53]
Query: // ranking: key=EC50, reverse=True I'd appreciate it if you listed the labels in the requested order.
Reply: I, IV, III, II
(I: 96000 pM, IV: 3280 pM, III: 633 pM, II: 380 pM)
